Quick reference: log10 binding signal of the listed items.
- subjectOfTest: GST-Co-NF-kB (Capsaspora owczarzaki, UniProt F1ARL5 200-546)
- Sequence: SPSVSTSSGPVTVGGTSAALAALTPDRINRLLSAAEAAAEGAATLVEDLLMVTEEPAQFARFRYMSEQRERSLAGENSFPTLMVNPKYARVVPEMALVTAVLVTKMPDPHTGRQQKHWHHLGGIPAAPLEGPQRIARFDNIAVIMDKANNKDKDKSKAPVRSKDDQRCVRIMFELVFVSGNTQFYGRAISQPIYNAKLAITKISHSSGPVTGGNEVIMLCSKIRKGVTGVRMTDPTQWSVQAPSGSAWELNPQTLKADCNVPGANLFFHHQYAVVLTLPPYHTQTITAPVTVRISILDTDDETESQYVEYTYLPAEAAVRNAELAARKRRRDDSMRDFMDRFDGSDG
- measurementProtocol: protein-binding microarray (PBM); PBM: ~300 nM protein, 6 mM HEPES pH 7.8, 80 mM KCl, 0.5 mM EDTA, 0.5 mM EGTA, 6% glycerol, 35 ng/ul poly-dIdC, 1% milk, 1 h, room temperature; high values mean tight binding
- reportedConditions: dsDNA, one strand shown
Each number you see is log10 of binding signal, and the unit inside the log is z-score.

CCGATTAACATCAAATAATACCCTGATGTTAATCGGGTCTTGATTCGCTTGACGCTGCTG = 0.28

Look up log10 binding signal for this sequence: `CCGATTAACATCAGGGGGTTCACTGATGTTAATCGGGTCTTGATTCGCTTGACGCTGCTG`
0.46

Quick one: `CCGATTAACATCAATTTCCCCCATGATGTTAATCGGGTCTTGATTCGCTTGACGCTGCTG`
1.03

Quick one: `CCGATTAACATCAGGGGGACACCTGATGTTAATCGGGTCTTGATTCGCTTGACGCTGCTG`
0.72

----------
- subjectOfTest: GST-Aq-NF-kB (Amphimedon queenslandica, UniProt A9Y5G7 2-389)
- Sequence: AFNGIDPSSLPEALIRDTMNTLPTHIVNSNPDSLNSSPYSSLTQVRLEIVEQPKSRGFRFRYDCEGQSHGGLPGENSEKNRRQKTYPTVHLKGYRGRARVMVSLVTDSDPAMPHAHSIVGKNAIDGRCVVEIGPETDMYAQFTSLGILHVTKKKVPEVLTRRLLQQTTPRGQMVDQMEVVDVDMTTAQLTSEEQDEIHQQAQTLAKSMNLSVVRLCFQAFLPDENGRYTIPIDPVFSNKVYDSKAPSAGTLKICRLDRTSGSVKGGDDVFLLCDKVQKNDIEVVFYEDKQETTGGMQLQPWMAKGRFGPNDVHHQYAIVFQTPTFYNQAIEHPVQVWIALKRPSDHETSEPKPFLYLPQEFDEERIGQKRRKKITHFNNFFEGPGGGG
- measurementProtocol: protein-binding microarray (PBM); PBM: ~300 nM protein, 6 mM HEPES pH 7.8, 80 mM KCl, 0.5 mM EDTA, 0.5 mM EGTA, 6% glycerol, 35 ng/ul poly-dIdC, 1% milk, 1 h, room temperature; high values mean tight binding
- reportedConditions: dsDNA, one strand shown
recordedMetric: binding signal (z-score)
Lab book: enter the figure in z-score, no units written.

Example results:
CCGATTAACATCAGAGCCCCCCCTGATGTTAATCGGGTCTTGATTCGCTTGACGCTGCTG = 4.2
CCGATTAACATCACGGGAATCCCTGATGTTAATCGGGTCTTGATTCGCTTGACGCTGCTG = 7.15
CCGATTAACATCACTTTTCCCCCTGATGTTAATCGGGTCTTGATTCGCTTGACGCTGCTG = 5.27
CCGATTAACATCACCGCCCCACGTGATGTTAATCGGGTCTTGATTCGCTTGACGCTGCTG = 1.28
CCGATTAACATCAGGGGGTAATATGATGTTAATCGGGTCTTGATTCGCTTGACGCTGCTG = 4.45

Look up binding signal for this sequence: `CCGATTAACATCAAAACCCCCCGTGATGTTAATCGGGTCTTGATTCGCTTGACGCTGCTG`
7.07

Quick one: `CCGATTAACATCACGGACTTCCCTGATGTTAATCGGGTCTTGATTCGCTTGACGCTGCTG`
5.45

Quick one: `CCGATTAACATCATGGGGGGAAATGATGTTAATCGGGTCTTGATTCGCTTGACGCTGCTG`
5.5

Quick one: `CCGATTAACATCAGGAATTTTCATGATGTTAATCGGGTCTTGATTCGCTTGACGCTGCTG`
1.37

----------
- subjectOfTest: GST-Dm-Relish (Drosophila melanogaster, UniProt Q94527 99-473)
- Sequence: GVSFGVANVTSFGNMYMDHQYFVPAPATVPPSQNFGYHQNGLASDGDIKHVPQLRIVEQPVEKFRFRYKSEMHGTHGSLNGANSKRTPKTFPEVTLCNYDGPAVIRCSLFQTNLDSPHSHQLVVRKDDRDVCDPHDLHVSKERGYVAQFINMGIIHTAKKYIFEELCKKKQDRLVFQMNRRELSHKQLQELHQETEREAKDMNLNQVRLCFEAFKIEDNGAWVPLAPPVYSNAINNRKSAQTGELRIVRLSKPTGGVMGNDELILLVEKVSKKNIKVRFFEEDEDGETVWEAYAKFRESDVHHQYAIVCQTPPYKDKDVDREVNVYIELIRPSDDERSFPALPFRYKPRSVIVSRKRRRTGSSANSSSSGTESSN
- measurementProtocol: protein-binding microarray (PBM); PBM: ~300 nM protein, 6 mM HEPES pH 7.8, 80 mM KCl, 0.5 mM EDTA, 0.5 mM EGTA, 6% glycerol, 35 ng/ul poly-dIdC, 1% milk, 1 h, room temperature; high values mean tight binding
- reportedConditions: dsDNA, one strand shown
Please assign Not fulfilled whenever binding signal is at or above 3 z-score, and Fulfilled whenever it is below.

CCGATTAACATCAGGGGATTAAATGATGTTAATCGGGTCTTGATTCGCTTGACGCTGCTG = Not fulfilled

binding signal under 3 z-score? Item: `CCGATTAACATCAGGACTTTACCTGATGTTAATCGGGTCTTGATTCGCTTGACGCTGCTG`
Not fulfilled

Quick one: `CCGATTAACATCAAGGAAAGCCCTGATGTTAATCGGGTCTTGATTCGCTTGACGCTGCTG`
Not fulfilled

----------
- subjectOfTest: GST-Ap-NF-kB RHD (Exaiptasia pallida (Aiptasia), UniProt A0A913YAJ5 2-422)
- Sequence: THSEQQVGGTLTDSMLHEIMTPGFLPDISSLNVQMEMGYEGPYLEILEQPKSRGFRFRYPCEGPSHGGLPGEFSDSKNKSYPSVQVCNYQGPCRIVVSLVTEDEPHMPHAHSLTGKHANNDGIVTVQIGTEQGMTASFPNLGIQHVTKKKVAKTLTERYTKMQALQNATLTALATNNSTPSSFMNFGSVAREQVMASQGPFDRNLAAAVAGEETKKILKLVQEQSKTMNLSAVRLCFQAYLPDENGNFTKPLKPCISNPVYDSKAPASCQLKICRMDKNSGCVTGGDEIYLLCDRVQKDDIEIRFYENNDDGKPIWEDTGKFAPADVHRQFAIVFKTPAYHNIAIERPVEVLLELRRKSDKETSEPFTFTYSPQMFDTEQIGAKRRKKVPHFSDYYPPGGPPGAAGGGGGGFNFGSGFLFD
- measurementProtocol: protein-binding microarray (PBM); PBM: ~300 nM protein, 6 mM HEPES pH 7.8, 80 mM KCl, 0.5 mM EDTA, 0.5 mM EGTA, 6% glycerol, 35 ng/ul poly-dIdC, 1% milk, 1 h, room temperature; Ap Aiptasia and Nv Nematostella (sea anemones) / Co Capsaspora / Aq Amphimedon (sponge) / Dm Drosophila / Hu human; RHD is the Rel homology domain; high values mean tight binding
- reportedConditions: dsDNA, one strand shown
Please assign n whenever binding signal is at or above 3 z-score, and y whenever it is below.

Worked examples follow.
CCGATTAACATCAAAAAACTACCTGATGTTAATCGGGTCTTGATTCGCTTGACGCTGCTG = y
CCGATTAACATCAGGAGTTACCCTGATGTTAATCGGGTCTTGATTCGCTTGACGCTGCTG = y
CCGATTAACATCAAAAAACCCCGTGATGTTAATCGGGTCTTGATTCGCTTGACGCTGCTG = n
CCGATTAACATCAGGGAAACATATGATGTTAATCGGGTCTTGATTCGCTTGACGCTGCTG = y
CCGATTAACATCAGGCCGTCCCCTGATGTTAATCGGGTCTTGATTCGCTTGACGCTGCTG = n
CCGATTAACATCACAATACCCCCTGATGTTAATCGGGTCTTGATTCGCTTGACGCTGCTG = n
CCGATTAACATCAAGTGGGAAAATGATGTTAATCGGGTCTTGATTCGCTTGACGCTGCTG = y
CCGATTAACATCAGGATTTCCCATGATGTTAATCGGGTCTTGATTCGCTTGACGCTGCTG = n

Field: next sequence
binding signal under 3 z-score? Item: `CCGATTAACATCAGGGAGAACCCTGATGTTAATCGGGTCTTGATTCGCTTGACGCTGCTG`
n
